Tested on: PPARg:RXRa 90nM:30nM, anti-RXR (NR concentration 90 nM, RXRa partner concentration 30 nM)
Assay details: PBM binding z-score (relative to random genomic background probes); higher = stronger binding; sequences stand for … in GC…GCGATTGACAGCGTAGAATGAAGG
Please mark y if the recorded PBM binding z-score is equal to or greater than 1, and n if it falls below.

Q. Would you say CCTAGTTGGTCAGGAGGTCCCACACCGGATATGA shows PBM binding z-score at minimum 1?
A. n

Q. Thanks! And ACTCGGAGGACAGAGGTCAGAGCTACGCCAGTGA ?
A. y

Q. Thanks! And AGTCAAAGGTCAGGACGAGGTAACGTAAAGCACG ?
A. y

Q. Thanks! And CCTACTGGGCCACGAAAGGTGATTGATTCAGTGA ?
A. n

Q. Thanks! And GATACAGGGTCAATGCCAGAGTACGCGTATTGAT ?
A. y

Q. Thanks! And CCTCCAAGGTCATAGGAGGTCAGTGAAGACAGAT ?
A. y

Q. Thanks! And TCTGCTATGTCAACGATGGTCAGCTAATCTGCTA ?
A. n

Q. Thanks! And CTATGTAGGTTCAGGGGGTCATTCAGTTTGAAAG ?
A. y

Q. Thanks! And CCGAGTAGGTTCCGAGGGGGCATTCAGTGCGAAT ?
A. n

Q. Thanks! And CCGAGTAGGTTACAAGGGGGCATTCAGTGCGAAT ?
A. y

Q. Thanks! And CTATGTAGGTTAAGGGGGTGATTCAGTTTGAAAG ?
A. y

Q. Thanks! And CGTCAAAGTTCTAGGTAACGTAACAGAAAGCAGC ?
A. n

---

Test system: RXRa homodimer (NR concentration 180 nM)
Assay details: PBM binding z-score (relative to random genomic background probes); higher = stronger binding; sequences stand for … in GC…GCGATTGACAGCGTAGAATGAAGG
Please mark MET if the recorded PBM binding z-score is equal to or greater than 4, and NOT MET if it falls below.

Q. Would you say AGTCAAAGTTCAGGACGAGGTAATGTAAAGCACG shows PBM binding z-score at minimum 4?
A. NOT MET

Q. Thanks! And ATCTCTAGGTGAAAGTTCAGTGAATCCCGAGGAT ?
A. NOT MET

Q. Thanks! And ACTAGAAGGCCAAGGGTCACTCAAGATTAGTCCG ?
A. MET

Q. Thanks! And CCGAGTAGGCTACGAGGGGGCATTCAGTGCGAAT ?
A. NOT MET

Q. Thanks! And TCTTGTTGATCAAAGGTTAAGAAAGCCGAAGCCT ?
A. NOT MET

Q. Thanks! And CGTCCAAGGGCAGCAGGTCAGTGAAAGCGACGTG ?
A. NOT MET

Q. Thanks! And CGTCAAAGTTCAAGGTTACGTAACAGAAAGCAGC ?
A. MET

Q. Thanks! And CCTAGTAGGTTATGGGGCATTCAGGCAACGGTGA ?
A. NOT MET

Q. Thanks! And CCGAGTAGGTCACGAGGGGGCATTCAGTGCGAAT ?
A. MET

Q. Thanks! And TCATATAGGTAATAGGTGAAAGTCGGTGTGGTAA ?
A. NOT MET

Q. Thanks! And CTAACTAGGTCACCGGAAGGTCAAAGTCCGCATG ?
A. MET

Q. Thanks! And AGTCAAAGTTCAGGACGAGGTACCGTAAAGCACG ?
A. NOT MET

Q. Thanks! And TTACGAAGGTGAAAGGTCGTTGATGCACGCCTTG ?
A. MET

Q. Thanks! And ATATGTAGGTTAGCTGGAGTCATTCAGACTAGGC ?
A. NOT MET

Q. Thanks! And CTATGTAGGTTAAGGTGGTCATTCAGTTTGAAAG ?
A. NOT MET

Q. Thanks! And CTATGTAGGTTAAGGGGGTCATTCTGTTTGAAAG ?
A. MET

Q. Thanks! And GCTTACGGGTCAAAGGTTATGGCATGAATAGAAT ?
A. MET

Q. Thanks! And TGGCCTAGGTCATGGGCCAGTATACCACGCGAAC ?
A. NOT MET

Q. Thanks! And GCTGCAAGGTCAACTGATGGTCAGCTAAAGCTCG ?
A. MET

Q. Thanks! And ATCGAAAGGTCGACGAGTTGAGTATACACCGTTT ?
A. MET

Q. Thanks! And GATACAGGGTCAAGGCCAGAGTACGCGTATTGAT ?
A. MET

Q. Thanks! And TCGAGTAGGTTACGGTGGCATTCAGGGATGAAGA ?
A. NOT MET

Q. Thanks! And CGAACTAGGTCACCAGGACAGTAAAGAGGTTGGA ?
A. NOT MET

Q. Thanks! And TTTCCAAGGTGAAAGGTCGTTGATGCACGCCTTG ?
A. MET

Q. Thanks! And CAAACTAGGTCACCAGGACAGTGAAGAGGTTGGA ?
A. NOT MET

---

Test system: THRa homodimer (NR concentration 90 nM)
Assay details: PBM binding z-score (relative to random genomic background probes); higher = stronger binding; sequences stand for … in GC…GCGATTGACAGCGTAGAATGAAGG
Returns the class for an entry based on its PBM binding z-score. Class ranges: range 1 = under 0.02, range 2 = from 0.02 up to 1, range 3 = 1 and over

Q. Tag the class for TAGCCTAGGTCATAGGGCCAGTATAGTACGCATC
A. range 2

Q. Thanks! And ATCGAAATGTCGTGAGGTGAGTATACAGAAAGGC ?
A. range 3

Q. Thanks! And ACTAACAGGCCAAGGGTCACTCAAGATTAGTCCG ?
A. range 2

Q. Thanks! And AGTCAAAGTTCATCAAGGTAACGTAAGATATGCT ?
A. range 3

Q. Thanks! And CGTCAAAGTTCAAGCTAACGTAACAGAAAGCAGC ?
A. range 1

Q. Thanks! And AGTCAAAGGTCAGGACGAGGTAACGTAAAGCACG ?
A. range 3

Q. Thanks! And CCTTACGGGTCCCTGACAGGTTATAGCATTTGGA ?
A. range 1

Q. Thanks! And CGAACTAAGTCATTGACAGGACAGTGAATAGTAA ?
A. range 1

Q. Thanks! And CAAACTAGGTCAAAGGTCAGAGTCGAGCCAACCA ?
A. range 3

Q. Thanks! And CCTACTGGGCCAAGGTCATTGAGCAGTCAAAGCA ?
A. range 3

Q. Thanks! And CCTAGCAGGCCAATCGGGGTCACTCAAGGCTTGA ?
A. range 3

Q. Thanks! And TCGAGTAGGTTACGGGAGCATTCAGGGATGAAGA ?
A. range 1

Q. Thanks! And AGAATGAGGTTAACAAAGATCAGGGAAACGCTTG ?
A. range 2

Q. Thanks! And CCTGCTAGTTCAATGGTCAGCTAAAGCAGCTCGC ?
A. range 1

Q. Thanks! And ATATGTAGATTAGGGTCATTCAGAAAGTAGGGAA ?
A. range 3

Q. Thanks! And ATCGAAAGGTCGTGAGGTGTGTATACAGAAAGGC ?
A. range 1

Q. Thanks! And ATCGAAAGGTCGTGAGGTGAGTACACAGAAAGGC ?
A. range 3

Q. Thanks! And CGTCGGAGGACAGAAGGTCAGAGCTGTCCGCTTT ?
A. range 1

Q. Thanks! And CCTTACGGGTCAAGGTAATAGCACGGGTGGTACG ?
A. range 2

Q. Thanks! And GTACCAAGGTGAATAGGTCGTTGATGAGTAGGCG ?
A. range 2

Q. Thanks! And CGTCCAACGTCAGCAGGTCAGTGAAAGCGACGTG ?
A. range 1

Q. Thanks! And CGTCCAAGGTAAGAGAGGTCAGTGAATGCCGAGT ?
A. range 3

Q. Thanks! And TCTAGCTGGTCAAAGGTCACACACTCGAAATGCG ?
A. range 3

Q. Thanks! And TCGAGTAGGTTACGGGGGCATTTAGGGATGAAGA ?
A. range 3

---

Tested on: THRa homodimer (NR concentration 90 nM)
Assay details: PBM binding z-score (relative to random genomic background probes); higher = stronger binding; sequences stand for … in GC…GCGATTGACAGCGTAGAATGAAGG
Readout kind: PBM binding z-score

Q. Fill in the blank: the reported PBM binding z-score of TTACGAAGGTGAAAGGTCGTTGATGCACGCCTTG is ____.
A. 0.141

Q. Thanks! And AATACAGGGTCGCTAGGCCAGAGTAGGTACGAAT ?
A. 0.0627

Q. Thanks! And CGAACTAGGTCAAAGGACAGTAAAAGGCGACGTA ?
A. 0.556

Q. Thanks! And TCTAGTTGGTCGCGGAGGTCACACACGACGGGTA ?
A. 2.74

Q. Thanks! And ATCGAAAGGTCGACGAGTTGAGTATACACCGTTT ?
A. -0.136

Q. Thanks! And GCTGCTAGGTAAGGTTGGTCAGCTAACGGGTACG ?
A. -0.184
